- assayTarget: KRas G12V (Homo sapiens, UniProt P01116, G12V);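 further: KRas binding measured by TR-FRET displacement at room temperature, IC50 fitted from percent of control values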
- Sequence (P01116 1-169 isoform P01116-2 G12V): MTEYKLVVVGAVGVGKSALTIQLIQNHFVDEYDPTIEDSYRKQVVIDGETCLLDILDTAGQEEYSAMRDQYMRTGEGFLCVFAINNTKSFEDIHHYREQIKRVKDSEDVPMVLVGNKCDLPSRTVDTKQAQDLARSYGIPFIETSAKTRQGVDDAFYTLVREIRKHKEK
- testDescription: biochemical
property: IC50

Worked cases, answers included:
Nc1cc2n(n1)CCCN(c1nc(OC[C@@]34CCCN3C[C@H](F)C4)nc3c(F)c(-c4cc(O)cc5ccc(F)c(Cl)c45)ncc13)C2 [Example 426] = ≤ 2 nM
CN(Cc1c[nH]c2ncccc12)c1nc(OCC23CCCN2CCC3)nc2c(F)c(-c3cccc4cccc(F)c34)ncc12 [Example 223] = 930 nM
NS(=O)(=O)CC1CCCN(c2nc(OC[C@@]34CCCN3C[C@H](F)C4)nc3c(F)c(-c4cc(O)cc5ccc(F)c(F)c45)ncc23)C1 (stereo partly drawn) [Example 203] = ≤ 2 nM
Cn1cc(CNc2nc(OCC34CCCN3CCC4)nc3c(F)c(-c4cccc5cccc(F)c45)ncc23)ccc1=O [Example 88] = 2180 nM
CCc1c(F)ccc2cc(O)cc(-c3ncc4c(N5CCCn6nc(C(=O)NCCO)cc6C5)nc(OC[C@@]56CCCN5C[C@H](F)C6)nc4c3F)c12 [Example 506] = ≤ 2 nM

The record that follows has no IC50 shown yet.
QUERY: What IC50 appears in the records for this molecule with KRas G12V (Homo sapiens, UniProt P01116, G12V)? Oc1cc(-c2ncc3c(N4CCCC5(CC(O)C5)C4)nc(OC[C@@]45CCCN4C[C@H](F)C5)nc3c2F)c2c(Cl)c(F)ccc2c1 (stereo partly drawn) [Example 425]
RESULT: ≤ 2 nM

###

- assayTarget: KRas G12C (Homo sapiens, UniProt P01116, G12C);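 further: binding to KRas assessed by TR-FRET displacement after one hour incubation at room temperature, potency fitted from percent-of-control values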
- Sequence (P01116 1-169 isoform P01116-2 G12C): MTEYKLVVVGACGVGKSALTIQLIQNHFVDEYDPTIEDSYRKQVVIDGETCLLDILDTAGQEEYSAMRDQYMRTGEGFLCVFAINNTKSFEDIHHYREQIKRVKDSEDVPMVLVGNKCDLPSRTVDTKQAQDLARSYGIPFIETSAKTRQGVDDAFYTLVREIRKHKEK
- testDescription: biochemical
property: pIC50
One number for each entry, as −log10 of the molar value.

Worked cases, answers included:
CC1(O)CCCN(c2nc(OCC34CCCN3CCC4)nc3c(F)c(-c4cccc5cccc(C6CC6)c45)ncc23)C1 (stereo not shown) = 6.26
OCC1CCCCN(c2nc(OCC34CCCN3CCC4)nc3c(F)c(-c4cccc5cccc(F)c45)ncc23)C1 (stereo not shown) = 5.04
O=C1NC(=O)C2(CCCCN(c3nc(OCC45CCCN4CCC5)nc4c(F)c(-c5cccc6cccc(F)c56)ncc34)C2)N1 (stereo not shown) = 5.65

Provide the reported pIC50 of each entry below, same order.
1. CNc1cc2n(n1)CCCN(c1nc(OCC34CCCN3CCC4)nc3c(F)c(-c4cccc5cccc(F)c45)ncc13)C2
2. Cc1cc(N)nc(-c2ncc3c(N4CCC[C@@](C)(O)C4)nc(OC[C@@H]4CCCN4C)nc3c2F)c1C(F)(F)F
3. C[C@@]1(O)CCCN(c2nc(OC[C@@]34CCCN3C[C@H](F)C4)nc3c(F)c(-c4c5ccccc5cc5[nH]ncc45)ncc23)C1

RESULT:
[5.36, 5.32, 7.37]

###

- assayTarget: KRas G12S (Homo sapiens, UniProt P01116, G12S);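 further: TR-FRET displacement binding to KRas, read after one hour incubation at room temperature, IC50 from four-parameter fit of percent of control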
- Sequence (P01116 1-169 isoform P01116-2 G12S): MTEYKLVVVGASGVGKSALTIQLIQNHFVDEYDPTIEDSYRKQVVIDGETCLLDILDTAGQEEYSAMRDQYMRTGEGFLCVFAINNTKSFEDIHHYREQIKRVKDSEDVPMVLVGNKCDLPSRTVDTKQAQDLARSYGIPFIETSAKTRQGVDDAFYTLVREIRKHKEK
- testDescription: biochemical
Field: pIC50. Provide a value for each of the compounds that follow.
Numbers only, as −log10 of the molar value.

Worked cases, answers included:
OCC1CN(c2nc(OCC34CCCN3CCC4)nc3c(F)c(-c4cccc5cccc(F)c45)ncc23)CCCO1 (stereo not drawn) = 6.14
C#Cc1c(F)ccc2cccc(-c3ncc4c(N5CCC[C@@](C)(O)C5)nc(OC[C@@]56CCCN5C[C@H](F)C6)nc4c3F)c12 = 7.42
Cc1cccc2cccc(-c3ncc4c(N5CCCC(c6nc[nH]n6)C5)nc(OCC56CCCN5CCC6)nc4c3F)c12 (stereo not drawn) = 5.09

Provide the reported pIC50 of each entry below, same order.
1. Fc1c(-c2cccc3cccc(F)c23)ncc2c(NCc3ccc4nccn4c3)nc(OCC34CCCN3CCC4)nc12
2. CCc1cccc2cccc(-c3ncc4c(N5CCCC6(C5)NC(=O)NC6=O)nc(OCC56CCCN5CCC6)nc4c3F)c12 (stereo not drawn)
3. O=C1NC(=O)C2(CCCN(c3nc(OCC45CCCN4CCC5)nc4c(F)c(-c5cccc6cccc(CF)c56)ncc34)C2)N1 (stereo not drawn)

RESULT:
5.65
8.22
6.51

Provide the reported pIC50 of each entry below, same order.
1. O=S1(=O)CCCN1C1CCCN(c2nc(OCC34CCCN3CCC4)nc3c(F)c(-c4cccc5cccc(F)c45)ncc23)C1 (stereo not drawn)
2. Fc1c(-c2cccc3cccc(Cl)c23)ncc2c(NCCCOC(F)F)nc(OCC34CCCN3CCC4)nc12
3. Fc1c(-c2cccc3cccc(F)c23)ncc2c(NCc3ccc4nonc4c3)nc(OCC34CCCN3CCC4)nc12
4. N#CCc1cccc2cccc(-c3ncc4c(N5CCCC6(CC(=O)N6)C5)nc(OCC56CCCN5CCC6)nc4c3F)c12 (stereo not drawn)
5. CCc1cccc2cccc(-c3ncc4c(N5CC6C(=O)NC(=O)C6C5)nc(OCC56CCCN5CCC6)nc4c3F)c12 (stereo not drawn)

RESULT:
[5.66, 5.46, 5.13, 5.45, 7.59]

Provide the reported pIC50 of each entry below, same order.
1. CS(=O)(=O)C1CCCCCN(c2nc(OCC34CCCN3CCC4)nc3c(F)c(-c4cccc5cccc(F)c45)ncc23)C1 (stereo not drawn)
2. OC1CCCN(c2nc(OCC34CCCN3CCC4)nc3c(F)c(-c4cccc5cccc(F)c45)ncc23)CC1 (stereo not drawn)
3. NC(=O)C(O)CNc1nc(OCC23CCCN2CCC3)nc2c(F)c(-c3cccc4cccc(Cl)c34)ncc12 (stereo not drawn)
4. O=C1NC(=O)C2(CCCCN(c3nc(OCC45CCCN4CCC5)nc4c(F)c(-c5cccc6cccc(F)c56)ncc34)C2)N1 (stereo not drawn)
5. O=C1CC(CNc2nc(OCC34CCCN3CCC4)nc3c(F)c(-c4cccc5cccc(F)c45)ncc23)CN1 (stereo not drawn)

RESULT:
[5.24, 5.55, 5.56, 5.68, 5.51]

Provide the reported pIC50 of each entry below, same order.
1. Fc1c(-c2cccc3cccc(F)c23)ncc2c(NCCc3c[nH]nn3)nc(OCC34CCCN3CCC4)nc12
2. CN(C)CC1(COc2nc(N3CCCC(C)(O)C3)c3cnc(-c4cccc5cccc(F)c45)c(F)c3n2)CC1 (stereo not drawn)
3. CCc1cccc2cccc(-c3ncc4c(N5CCCC6(CC(=O)N6)C5)nc(OCC56CCCN5CCC6)nc4c3F)c12 (stereo not drawn)

RESULT:
1. 4.96
2. 5.28
3. 7.09
